Recorded values, source PubChem BioAssay (NCI).

Test system: NCI-H522 lung
assay details: NCI tumour cell line growth inhibition, 48 h; in the data active = GI50 below about 0.43 µM; inactive = the rest
Labels: True (active), False (inactive)

In [3]: df
Out[3]:
                                   compound  qualitative_label
0  COc1ccc(C2=NN(C=O)C(c3cccc(Nc4ccnc5cc(Cl)ccc45)c3)C2)cc1 (centres undefined)              False
1   COc1ccc(-c2ccc(-c3ccc(C(=N)N)cn3)o2)cc1              False
2              Nc1ccccc1C#C/C=C\C#Cc1ccccc1              False
3  COc1cc2cc(C(=O)N3C[C@H](CCl)c4c3cc(N)c3ccccc43)[nH]c2c(OC)c1OC               True

---

Tested on: SNB-19 CNS
assay details: NCI tumour cell line growth inhibition, 48 h
observable: TGI

>>> print(df.to_string())
                                    compound  measured_result
 0  Cc1c(CN2CCN(C)CC2)c(CN2CCN(C)CC2)c(C)n1-c1ccc(Cl)cc1         > 100 µM
 1     CCCCOc1ccc(OCCCCCCCCCC[N+](C)(C)C)cc1          23.3 µM
 2  CCOC(=O)c1s/c(=N\Nc2nc3ccccc3cc2C2OCCO2)n(Cc2ccccc2)c1C         > 100 µM
 3  COc1ccc(/C=c2\s/c(=C3/SC(=S)N(c4ccccc4)C3=O)n(-c3ccccc3)c2=O)cc1         > 100 µM
 4  COC(=O)[C@@H]1CCCCC[C@H]2C(CO)=C(C)C(=O)C12 (stereo partly drawn)         > 100 µM
 5       O=C1C(c2ccccc2)=[N+]([O-])c2ccccc21          37.5 µM
 6  O=c1cccc(C2CC(CO)C3CCCCN3C2)[nH]1 (stereo not drawn)         > 100 µM
 7  COc1ccc(/C=C2\CCCC(C(NO)c3ccc(OC)cc3)C2=NO)cc1 (stereo not drawn)         > 100 µM
 8              c1ccc2c(c1)Sc1nccc3ccnc-2c13         > 100 µM
 9  CC[C@]1(O)C(=O)OCc2c1cc1n(c2=O)Cc2cc3c(N)cccc3nc2-1         > 100 µM
10  O=C1NC(=S)S/C1=C(/C=C(\CC(=O)c1ccccc1)c1ccc(Cl)cc1)c1ccccc1         > 100 µM
11  COc1cc(/C=C2\C(=O)Nc3ccc(N(C)C)cc32)cc(OC)c1OC         > 100 µM
12  CC1=C(C(=O)Nc2cccc(Cl)c2)C(c2ccccc2F)C(C(=O)Nc2cccc(Cl)c2)=C(C)N1         > 100 µM

---

# TGI per record follows
Test system: BT-549 breast
assay details: NCI tumour cell line growth inhibition, 48 h
observable: TGI

>>> print(df.to_string())
                                    molecule  measured_result
 0  C1=C2C3=[N+](CCCCC3)CC2Cc2ccsc21 (stereo not drawn)         > 100 µM
 1  NC(=O)c1csc(C2(O)COC(CO)C2O)n1 (stereo not drawn)         > 100 µM
 2  COc1cc(C(=O)Nc2cc3c(cc2Oc2cc(C)cc(C)c2)C(=O)N(C)[C@@H](CC(=O)N(C)O)C(=O)N3)c(Br)c(OC)c1OC     < 0.00333 µM
 3  COc1ccccc1CN=C1Nc2ccncc2S(=O)(=O)N1c1ccccc1         > 100 µM
 4  O=C(O)c1ccc2c(c1)CCCC(c1ccc(Cl)cc1Cl)=C2c1ccc(O[C@H]2CCN(CCCF)C2)cc1          22.9 µM
 5  COc1cc(S(=O)(=O)Nc2ccc(C(=O)/C=C/c3ccc(O)cc3)cc2)ccc1F         > 100 µM
 6  CO[C@H]1SC[C@H](OC(C)=O)[C@H](OC(C)=O)[C@H]1OC(C)=O         > 100 µM
 7  CC(C)c1cccc(C(C)C)c1NC(=O)/C(CC(=O)CC(c1ccccc1)c1c(O)c2ccccc2oc1=O)=N/O (stereo not drawn)         > 100 µM
 8  CCC(O)(Cc1ccc(OC)cc1)c1ccc(OC)cc1 (stereo not drawn)         > 100 µM
 9  CC1(C)OCC2OC3([C@@H]4OC(C)(C)O[C@H]4CO)OC(C)(C)OC3C2O1 (stereo partly drawn)         > 100 µM
10  O=c1nc2c(c(-c3ccc(Br)cc3)[nH]1)COC/C2=C\c1ccc(Br)cc1          > 50 µM
11     O=C1C=CC(=O)N1n1c(-c2ccccc2)n[nH]c1=O         > 100 µM
12  CN(C)CCCNC(=O)c1cc(NC(=O)c2cc(NC(=O)CCCn3c4ccccc4c4ccccc43)cn2C)cn1C          46.7 µM

---

Tested on: UACC-257 melanoma
assay details: NCI tumour cell line growth inhibition, 48 h
Each entry below carries its reported TGI.
observable: TGI

>>> df
                                    molecule  measured_result
 0  CC1(C)OCC2OC3([C@@H]4OC(C)(C)O[C@H]4CO)OC(C)(C)OC3C2O1 (stereo partly drawn)         > 100 µM
 1  CN1C(=O)N(C)C2C1NN=c1s/c(=C\c3ccc(F)cc3)c(=O)n12 (stereo not drawn)         > 100 µM
 2  COC(=O)C1=C(C(=O)OC)SC(=CC#CC=C2SC(C(=O)OC)=C(C(=O)OC)S2)S1         > 100 µM
 3        COc1ccc(Cn2cc3c(c2)-c2oncc2CC3)cc1        > 85.1 µM
 4        CCCCCCCCCCCCCCCCCC1=NCCN1C(=O)OCCO          5.68 µM
 5             O=C(/C=C/C(=O)N1CCCC1)N1CCCC1         > 100 µM
 6  N#CCCN(CCC#N)c1ccc(C(Sc2ccccc2)C(NC(=O)c2cc([N+](=O)[O-])ccc2Cl)C(=O)Sc2ccccc2)cc1 (stereo not drawn)          14.3 µM
 7   COc1cc(C(=O)Oc2ccc3c(c2)OCO3)cc(OC)c1OC         > 100 µM
 8  COc1ccc(N2C(=O)[C@H]3CC(C)c4c([nH]c5ccccc45)[C@H]3C2=O)cc1 (stereo partly drawn)        > 93.9 µM
 9  NC(=S)NNc1c([N+](=O)[O-])cnn(-c2ccccc2)c1=O          38.8 µM
10  Cc1cc(S(=O)(=O)/N=C(/C(=C=[N-])C#N)[n+]2ccc(N(C)C)cc2)c(SCC(=O)O)cc1Cl         > 100 µM
11  CC1C(NNc2ccccc2)Oc2cc3c(cc2C1c1ccccc1O)OCO3 (stereo not drawn)          20.5 µM
12   CSc1nc(NC(C)C)c2c(n1)Sc1nc3ccccc3n1N=C2         > 100 µM
